Attribution: PubChem BioAssay (NCI)

METHOD: NCI Yeast Anticancer Drug Screen. Data for the rad18 strain (AID 177)
ASSAY CONDITIONS: S. cerevisiae rad18 mutant growth inhibition; at 100.0 µM; active compounds read high
The panel holds about 79,000 compounds, 15% with a hit somewhere; the sample as a whole holds those more often.
Label yes when growth inhibition is at or above 80%; anything below gets no.

stdin: Determine whether measured growth inhibition meets or exceeds 80% for `CCN(CC)C(C)(C)C(=O)/C=C/c1ccccc1`
stdout: no

stdin: # bool: growth inhibition of CCCCCCCCCCCCCCC(C(=O)[O-])[n+]1ccccc1 (stereo unspecified) >= 80%
stdout: yes

stdin: Is reported growth inhibition greater than or equal to 80% here: `C[C@H](CCC(=O)NN)[C@H]1CC[C@H]2[C@@H]3CC[C@@H]4C[C@H](O)CC[C@]4(C)[C@H]3CC[C@]12C`
stdout: no

stdin: Exam item: decide whether the reported growth inhibition for CN1c2ccc(Cl)cc2C(=O)NC1c1ccc([N+](=O)[O-])s1 (stereo unspecified) is at least 80%.
stdout: yes

stdin: API: above_or_equal(metric=growth inhibition, cutoff=80%) for item `Cc1cc(N=Nc2ccc(S(=O)(=O)[O-])cc2)cc(C(=O)[O-])c1[O-].NC1CCCCC1N.[Na+].[Pt+4]`
stdout: yes

stdin: Would you say `BrCC[P+](c1ccccc1)(c1ccccc1)c1ccccc1` shows growth inhibition at minimum 80%?
stdout: yes

stdin: Is it the case that CC(O)C(O)C(O)C(/C=N\Nc1ccccc1)=N/Nc1ccccc1 (stereo unspecified) has growth inhibition reaching or exceeding 80%?
stdout: yes

stdin: Does growth inhibition meet or surpass 80% for `c1ccc2c(c1)sc1nc3ccncc3nc12` ?
stdout: no

stdin: Does the compound `O=c1ssc2ncccc12` have recorded growth inhibition that is 80% or more?
stdout: yes

stdin: Is the recorded value of growth inhibition equal to or greater than 80% for this compound? `CSC(=S)Nc1cc(C)ccn1`
stdout: no

====

METHOD: NCI Yeast Anticancer Drug Screen. Data for the wt2 strain (AID 169);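 also: 0% = growth of vehicle-treated yeast cultures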
ASSAY CONDITIONS: S. cerevisiae wt2 strain growth inhibition; at 33.0 µM; active compounds read high
The panel holds about 79,000 compounds, 15% with a hit somewhere; the sample as a whole holds those more often.
Criterion: growth inhibition meeting or surpassing 30%. Met: label 1. Not met: label 0.

stdin: Please tell me: is the compound `O=C(CC(=O)n1nc(-c2ccccc2)c(N=Nc2ccccc2C(=O)O)c1-c1ccccc1)Nc1ccc(Cl)cc1` at or over 30% in terms of growth inhibition?
stdout: label 0

stdin: # bool: growth inhibition of `CN1Cc2ccccc2/C=C\c2ccccc21` >= 30%
stdout: label 0

stdin: Has `CCOC(=O)c1cc(-c2ccc(Cl)cc2)c([N+](=O)[O-])n1C` a recorded growth inhibition greater than or equal to 30%?
stdout: label 1

stdin: Please check the record `C=C(CN(C)C)C(=O)c1cc(C)ccc1C` and state if its growth inhibition is at or above 30%.
stdout: label 1

stdin: Tell me whether growth inhibition is at least 30% here: `CCN(CC)CC[n+]1ccc2c(C)c3[nH]c4ccc(O)cc4c3c(C)c2c1`
stdout: label 0

stdin: // inclusive: growth inhibition at least 30%? input: `COC(=O)C1=C(C)NC(C)=C(C(=O)OC)C1c1cccc(/[N+]([O-])=C/c2ccccc2)c1`
stdout: label 1

stdin: Is growth inhibition for `CCCCCCCCCCC(=O)Cl` at or above 30%?
stdout: label 0

stdin: Confirm if growth inhibition reported for the compound `O=C1c2ccccc2-c2n[nH]c3cccc1c23` is 30% or above.
stdout: label 1

stdin: Item `COc1ccc(-c2cn(-c3ccc(I)cc3)c3ncnc(N)c23)cc1` with growth inhibition of 30% or above?
stdout: label 0

stdin: # bool: growth inhibition of COc1ccc(C2c3cc4c(cc3OC(C)(O)C2C)OCO4)c(OC)c1 (stereo unspecified) >= 30%
stdout: label 0

stdin: Answer whether growth inhibition of `O=C(NCCCCCCCN1CCCCCCC1)C(C1CCCCC1)C1CCCCC1` is greater than or equal to 30%.
stdout: label 1
